Assign pKd to each entry below.
# System Name: BPTF bromodomain (Homo sapiens, UniProt Q12830)
# Procedure Details: PrOF NMR (dual-protein screen of mixtures, titrations) with 5FW-BPTF
# Type: binding
# Design: against the bromodomains of BPTF and Plasmodium falciparum GCN5 (PfGCN5); his6; made in house
# Details: PrOF NMR titration; NS = non-saturating, NB = no binding
pKd: −log10 of the molar value.

Ask: Give pKd only, for Cc1ccc2c(C#N)c(N)sc2c1 [Fragment 4] , using BPTF bromodomain (Homo sapiens, UniProt Q12830) data.
Reply: < 3.00

Ask: Jot down pKd (BPTF bromodomain (Homo sapiens, UniProt Q12830)) of Cc1cccc(NC(=O)C2CCN(S(C)(=O)=O)CC2)c1 [Fragment 6] .
Reply: 3.27

Ask: Please look at CC(C)CNc1ncc([N+](=O)[O-])c(N)n1 [Fragment 5] and tell me its recorded pKd on BPTF bromodomain (Homo sapiens, UniProt Q12830).
Reply: < 3.00

---

# System Name: PfGCN5 bromodomain (Plasmodium falciparum, UniProt Q8IB67)
# Sequence (Q8IB67 entry or part of it): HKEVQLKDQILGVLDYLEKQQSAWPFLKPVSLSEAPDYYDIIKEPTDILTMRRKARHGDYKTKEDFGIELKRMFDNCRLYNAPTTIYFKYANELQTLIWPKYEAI
# Procedure Details: 1H CPMG NMR deconvolution of hit mixtures, PfGCN5
# Assay type: binding
# Details: 10 µM protein, 100 µM ligand
# Experimental: The second step is a ^1H CPMG NMR deconvolution of the hit mixtures using the non-fluorine-labeled bromodomains. ^1H CPMG NMR employs a T2 filter to take advantage of the difference in transverse relaxation time between protein and small molecules to filter out the bound-state ligand(s). Unlike the PrOF NMR assay, a single protein is assayed in each experiment. […]
Entries are sorted into classes by PfGCN5 CPMG % decrease as follows: group A: < 50%; group B: ≥ 50% and < 80%; group C: ≥ 80%

Ask: Please let me know in which category the item `COCCCn1c(C(=O)O)cc2c(=O)n(C)c(=O)n(C)c21` belongs.
Reply: group A

Ask: Class label required: `COC(=O)N1CCC(CNC(=O)c2ccco2)CC1`
Reply: group C

Ask: Which band does `Cc1onc(N)c1S(=O)(=O)N1CCC(C)CC1` fall in?
Reply: group A

Ask: Form field 'band' for COC(C)(CNS(C)(=O)=O)c1cccc(Cl)c1 (centres unmarked)
Reply: group B

Ask: Note: place this molecule into its band. Item: `Nc1ccc2c(c1)N(C(=O)C1CC1)CCC2`
Reply: group C

Ask: Field: class (PfGCN5 CPMG % decrease) — entry: CC(C)(C)OC(=O)N1CCC2CNCC21 (centres unmarked)
Reply: group A

Ask: Determine which band this molecule sits in: CC(C)(C)C(=O)N1CCSC(c2ccccc2)CC1 (centres unmarked)
Reply: group B

Ask: Which PfGCN5 CPMG % decrease band matches N#Cc1cccc(C(=O)NC2CCC3OCCOC3C2)c1 (centres unmarked) ?
Reply: group C

Ask: Band for the recorded PfGCN5 CPMG % decrease of `CCCCS(=O)(=O)N1CC(S(=O)(=O)CC(C)C)C1` ?
Reply: group A

Ask: Hello team, could you let me know which band the following molecule falls into: O=C(C1CC1)N1CCCC(Cc2nc(C3CC3)no2)C1 (centres unmarked)
Reply: group C

Ask: Textbook exercise: identify the category of the molecule given here, COc1ccccc1C(CNC(=O)C1CC1)OC (centres unmarked) , according to its measured value.
Reply: group A

Ask: Assign a category based on measured PfGCN5 CPMG % decrease for COc1ccc(C2CCCCN(S(C)(=O)=O)C2)cc1 (centres unmarked) and give only the class name.
Reply: group A

Ask: Textbook exercise: identify the category of the molecule given here, `CC(C)C(=O)N1CCN(c2cnnc(N(C)C)c2)CC1` , according to its measured value.
Reply: group C

Ask: # classify by PfGCN5 CPMG % decrease band: `CCC(=O)NCc1nc(C)cc(N2CCOCC2)n1`
Reply: group B

Ask: Please let me know in which category the item `CCOC(=O)c1c(NC(C)=O)sc(C)c1C` belongs.
Reply: group C

Ask: Pick a category. Item: `Cc1nnc(C2CCN(C(=O)c3ccsc3)CC2)s1`
Reply: group C

---

# System Name: PfGCN5 bromodomain (Plasmodium falciparum, UniProt Q8IB67)
# Procedure Details: 1H CPMG NMR deconvolution of hit mixtures, PfGCN5
# Type: binding
# Details: 10 µM protein, 100 µM ligand; for 9 from competition experiments (footnote a)
Endpoint: 1H CPMG NMR % Drop in Resonance Intensity PfGCN5

> print(dat)
                                   compound                               system.name           test.result
1  N#Cc1cccc(C(=O)NC2CCC3OCCOC3C2)c1 (centres unmarked)  PfGCN5 bromodomain (Plasmodium falciparum, UniProt Q8IB67)  +++++ (+++++ = 100%)
2           COC(=O)N1CCC(CNC(=O)c2ccco2)CC1  PfGCN5 bromodomain (Plasmodium falciparum, UniProt Q8IB67)  +++++ (+++++ = 100%)
3      CS(=O)(=O)N1CCC2(CC1)OC(=O)c1ccccc12  PfGCN5 bromodomain (Plasmodium falciparum, UniProt Q8IB67)  +++++ (+++++ = 100%)

---

# System Name: PfGCN5 bromodomain (Plasmodium falciparum, UniProt Q8IB67)
# Procedure Details: 1H CPMG NMR deconvolution of hit mixtures, PfGCN5
# Type: binding
# Details: 10 µM protein, 100 µM ligand
Assign PfGCN5 CPMG % decrease to each entry below.
Number only, in %; omit the unit.

Ask: Please supply the value of reported PfGCN5 CPMG % decrease for the item CC(C)C1NC(=O)CNC1=O (centres unmarked)
Reply: 50

Ask: Name the recorded PfGCN5 CPMG % decrease of the molecule listed here: COCC(=O)NC(C)Cc1ccc2c(c1)CCO2 (centres unmarked)
Reply: 25

Ask: Give reported PfGCN5 CPMG % decrease value for CCOC(=O)c1sc(NC(=O)C2CCOC2)cc1C (centres unmarked)
Reply: 63

Ask: Specify measured PfGCN5 CPMG % decrease for `Cc1c(C(=O)O)n[nH]c1C1CC1` .
Reply: 29

Ask: Kindly indicate its recorded PfGCN5 CPMG % decrease. Item: `Cc1ccc(S(=O)(=O)O)cc1.N#CC1CNCCO1`
Reply: 24

Ask: Recall and state the measured PfGCN5 CPMG % decrease for `CCNc1cc(NCCNC(=O)CC(C)C)nc(C)n1` .
Reply: 47

Ask: For the molecule `Cc1cc(C(=O)N2CC(N3C(=O)CSC3=O)C2)n(C)n1` , give its measured PfGCN5 CPMG % decrease value.
Reply: 25

Ask: Look up and state reported PfGCN5 CPMG % decrease for `CCCC(=O)Nc1cc2c3c(c1)CC(=O)N3CCC2`
Reply: 100

Ask: Give the reported value of PfGCN5 CPMG % decrease for this record: CS(=O)(=O)NCC(c1ccoc1)N1CCSCC1 (centres unmarked)
Reply: 40

Ask: Specify reported PfGCN5 CPMG % decrease for the molecule shown: CCC(C)Sc1nnc(-c2cn(C)nc2OC)n1CC (centres unmarked)
Reply: 36

Ask: Give PfGCN5 CPMG % decrease for `CCC(=O)NCc1nccc(N(C)C)n1`
Reply: 82

---

# System Name: PfGCN5 bromodomain (Plasmodium falciparum)
# Procedure Details: biochemical
# Type: binding
# Details: PrOF NMR titration; for 9 average of W1454 and W1379; NS = non-saturating; read-out: PfGCN5 Kd
Kindly supply the reported Kd values for the records listed here.
Numbers only; they are read as µM.

Ask: // fetch Kd; item: COC(=O)N1CCC(CNC(=O)c2ccco2)CC1 [Fragment 2] ; system: PfGCN5 bromodomain (Plasmodium falciparum)
Reply: 360

Ask: State Kd (PfGCN5 bromodomain (Plasmodium falciparum)) of CS(=O)(=O)N1CCC2(CC1)OC(=O)c1ccccc12 [Fragment 7] .
Reply: 150

---

What BPTF CPMG % decrease was measured for each of the following?
# System Name: BPTF bromodomain (Homo sapiens, UniProt Q12830)
# Procedure Details: 1H CPMG NMR deconvolution of hit mixtures, BPTF
# Type: binding
# Parameters: deconvolution of the hit mixtures using the non-fluorine-labeled bromodomains; made in house; host or cells: E. coli BL21(DE3)
# Details: 10 µM protein, 100 µM ligand
Use % as the unit, but write only the number.

Ask: State, in one line, measured BPTF CPMG % decrease of O=C1NCCN1C(=O)NCC(c1ccsc1)N1CCC1 (stereo not shown)
Reply: 23

Ask: Fill in reported BPTF CPMG % decrease for this entry: `CC(C)CNc1ncc([N+](=O)[O-])c(N)n1`
Reply: 65

Ask: Please indicate BPTF CPMG % decrease recorded for `CC(C)(C)OC(=O)N1CC(Oc2ncccn2)C1`
Reply: 54

Ask: Let me know recorded BPTF CPMG % decrease for `CCCCNc1nc2c([nH]1)c(=O)n(C)c(=O)n2C` , thanks.
Reply: 80
